Numbers sourced from patent EP4342530A1.

experiment: Kpuu determination in the dog (plasma and CSF time course after oral capsule)
Assay type: in vivo, male beagle dog
assay.setup: male, beagle, CSF, 20 mg/kg oral capsule, 8 h, read-out: CSF concentration
metric: concentration at 8 h (ng/mL)

>>> reported("CC(C)(C)CC[C@H](NCc1ccc2c(c1)COCC2)C(=O)O [Example 3]")
698

====

measured.on: Sortilin (Mus musculus)
Construct: purchased Bio-Techne Ltd 2934-ST-050
Sequence (Q6PHU5 76-753 limits assumed): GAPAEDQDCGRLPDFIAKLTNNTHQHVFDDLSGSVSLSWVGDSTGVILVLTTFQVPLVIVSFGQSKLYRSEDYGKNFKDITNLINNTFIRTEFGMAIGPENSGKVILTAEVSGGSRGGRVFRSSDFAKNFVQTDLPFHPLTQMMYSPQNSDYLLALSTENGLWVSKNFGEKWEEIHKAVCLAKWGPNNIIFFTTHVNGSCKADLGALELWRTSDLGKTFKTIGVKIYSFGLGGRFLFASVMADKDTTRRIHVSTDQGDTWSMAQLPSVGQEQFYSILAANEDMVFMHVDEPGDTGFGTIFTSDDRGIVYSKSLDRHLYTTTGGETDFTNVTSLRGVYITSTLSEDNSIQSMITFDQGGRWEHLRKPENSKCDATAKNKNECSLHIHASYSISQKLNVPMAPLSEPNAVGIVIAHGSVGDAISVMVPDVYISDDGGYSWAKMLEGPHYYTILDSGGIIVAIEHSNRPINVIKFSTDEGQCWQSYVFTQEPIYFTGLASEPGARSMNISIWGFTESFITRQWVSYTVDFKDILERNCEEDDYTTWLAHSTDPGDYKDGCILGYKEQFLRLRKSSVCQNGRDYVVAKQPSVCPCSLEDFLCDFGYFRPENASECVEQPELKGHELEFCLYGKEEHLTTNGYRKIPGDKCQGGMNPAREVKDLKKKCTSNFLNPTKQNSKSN
experiment: Creoptix (GCI) binding kinetics, mouse Sortilin
assay.setup: Species Mouse; Form of Compound Mesylate salt; screened at 1 µM, 25 degrees Celsius
metric: Kd (nM)

>>> reported("C[C@@H](N[C@@H](CCC(C)(C)C)C(=O)O)c1ccc2c(c1)OCCC2 [Example 9]")
59.5
>>> reported("C[C@H](N[C@@H](CCC(C)(C)C)C(=O)O)c1ccc2c(c1)CCCO2 [Example 50]")
258
>>> reported("C[C@H](N[C@@H](CCC(C)(C)C)C(=O)O)c1ccc2c(c1)CCOC2 [Example 59]")
204
>>> reported("C[C@@H](N[C@@H](CCC(C)(C)C)C(=O)O)c1ccc2c(c1)CCCO2 [Example 52]")
129

====

Catalogue of compounds with associated pIC50
measured.on: UniProt:Q99523
Sequence (Q99523 78-831): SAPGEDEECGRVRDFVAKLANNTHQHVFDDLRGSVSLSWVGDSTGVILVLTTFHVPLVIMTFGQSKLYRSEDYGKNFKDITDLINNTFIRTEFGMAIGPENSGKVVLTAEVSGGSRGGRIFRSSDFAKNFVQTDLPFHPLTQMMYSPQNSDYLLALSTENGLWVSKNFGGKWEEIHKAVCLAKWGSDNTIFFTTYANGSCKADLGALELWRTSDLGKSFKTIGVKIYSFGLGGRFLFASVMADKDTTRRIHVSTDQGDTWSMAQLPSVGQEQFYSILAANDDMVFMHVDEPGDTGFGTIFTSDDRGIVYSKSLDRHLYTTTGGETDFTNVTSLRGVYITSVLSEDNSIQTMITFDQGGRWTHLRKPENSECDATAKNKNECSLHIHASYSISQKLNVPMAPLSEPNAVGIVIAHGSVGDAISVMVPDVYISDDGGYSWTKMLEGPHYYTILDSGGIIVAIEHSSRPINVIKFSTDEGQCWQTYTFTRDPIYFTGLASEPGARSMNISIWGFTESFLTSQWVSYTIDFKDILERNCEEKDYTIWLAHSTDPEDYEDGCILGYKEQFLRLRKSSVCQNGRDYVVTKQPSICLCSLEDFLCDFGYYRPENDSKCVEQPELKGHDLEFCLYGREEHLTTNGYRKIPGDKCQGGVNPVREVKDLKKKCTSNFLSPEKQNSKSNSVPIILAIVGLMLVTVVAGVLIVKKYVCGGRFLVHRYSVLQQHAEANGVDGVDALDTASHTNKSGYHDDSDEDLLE
pIC50: −log10 of the molar value.
metric: pIC50

>>> reported("C[C@H](N[C@@H](CCC(C)(C)C)C(=O)O)c1ccc2c(c1)CCCC2")
6.21
>>> reported("CN1CCc2ccc(CN[C@@H](CCC(C)(C)C)C(=O)O)cc2C1=O")
6.37
>>> reported("CC(C)(C)CC[C@H](NCc1cccc(N2CCCC2)c1)C(=O)O")
6.46
>>> reported("CC(C)(C)CC[C@H](N[C@@H](c1ccc2c(c1)OCCC2)C(F)F)C(=O)O")
6.89
>>> reported("Cc1cc(CN[C@@H](CCC(C)(C)C)C(=O)O)cc2c1CCC2")
6.28
>>> reported("CC(C)(C)CC[C@H](NCc1ccc2c(c1)NC(=O)CC2)C(=O)O")
6.54
>>> reported("CC(C)(C)CC[C@H](NCc1cccc(Oc2ccccc2)c1)C(=O)O")
6.09
>>> reported("C[C@@H](N[C@@H](CCC(C)(C)C)C(=O)O)c1ccc2c(c1)CCC2")
6.68
>>> reported("CC(C)(C)CC[C@H](NCc1ccc(Oc2ccccc2)nc1)C(=O)O")
6.47
>>> reported("CC(C)(C)CC[C@H](NCc1ccc2c(c1)N(C(=O)OC(C)(C)C)CCC2)C(=O)O")
6.89
